test system: SK-MEL-2 melanoma; experiment: NCI-60 one-dose screen, 48 h (100 = growth as untreated, 0 = no growth, -100 = all killed); details: 10 µM unless noted
About 83,000 compounds went through this panel and 20% of them were active in at least one assay; those are over-represented in the sample as a whole.
reported_endpoint: growth (%)
// return numeric value only (unit: %, not printed)

Solved entries (count: 5):
{"columns": ["molecule", "units", "growth"],
 "data": [
  ["O=C(c1ccccc1)c1c(/C=C/c2ccc(Cl)cc2)nc2ccccc2c1/C=C/c1cccs1", "%", 103],
  ["CCCCCCCCCCCCCCCCCCOc1ccccc1CC(=O)OCCC[N+](C)(C)C", "%", 87.7],
  ["NC(=S)N/N=C/Cc1ccccc1", "%", 106],
  ["Oc1ccc(CN2CCC(N3CCOCC3)CC2)c2cccnc12", "%", -6.57],
  ["Cc1ccc(NS(=O)(=O)c2ccc3c(c2)C2OCCC2C(c2ccc(C(=O)C(C)C)cc2)N3)cc1C (centres undefined)", "%", 72.9]
]}

Entry under review: `COC(=O)CCC1=C(C)C2=NC1=CC1=NC(=CC3=NC(=Cc4[nH]c(/c(=C(/C)O)c4C)=C2)C(C(C)=O)=C3C)C(C)=C1CCC(=O)OC` . Reported growth?
102

Further, for `Cc1cc(NCc2cc(Nc3ccnc4cc(Cl)ccc34)ccc2F)nc(Cl)n1` ?
54.6

And the next one, `c1csc(-c2c3ccc(=[N+]4CCCCC4)cc-3oc3cc(N4CCCCC4)ccc23)c1` ?
-68.5

###

test system: NCI-H23 lung; assay: NCI-60 one-dose screen, 48 h (100 = growth as untreated, 0 = no growth, -100 = all killed); conditions: 10 µM unless noted
About 83,000 compounds went through this panel and 20% of them were active in at least one assay; those are over-represented in the sample as a whole.
Rule for this label: Met means growth is less than 90%; Not met means growth is at least 90%.

Sample answers from the record:
{"columns": ["compound", "label_class"],
 "data": [
  ["O=[N+]([O-])c1ccc(C2CC(c3ccccc3)=Nc3ccccc3S2)cc1 (stereo not given)", "Not met"],
  ["c1coc(-c2c3ccc(=[N+]4CCCCC4)cc-3oc3cc(N4CCCCC4)ccc23)c1", "Met"],
  ["COc1cc(N2C(=O)c3nccnc3C2=O)cc(OC)c1OC", "Not met"],
  ["COc1ccc(C(=O)COc2ccc(/C=C3\\Oc4ccccc4C3=O)cc2)cc1", "Not met"]
]}

Please turn your attention to the following entry.
Decide: growth of COc1cc(C2CC(c3cc(OC)c(OCCCOc4ccc(-n5c(/C=C/c6ccccc6)nc6ccccc6c5=O)cc4)c(OC)c3)=NO2)cc(OC)c1OC (stereo not given) strictly below 90%?
Not met

###

tested on: HCT-15 colon; test: NCI-60 one-dose screen, 48 h; settings: 10 µM unless noted
Compounds without any hit were thinned out: in the full panel of roughly 83,000, 20% have a hit. Calls of active or inactive are those of the source. How the source made its calls: active means growth percent below 10; inactive means the rest.
Could you please pick one outcome from this set? 1 = active, 0 = inactive

Worked examples, 5 compounds total:
{"columns": ["compound", "system_name", "label_class"],
 "data": [
  ["COC(=O)c1c2c(c[n+]([O-])c1C)C(=O)C=CC2=O", "HCT-15 colon", 0],
  ["Fc1cnc(NC2CC2)nc1-c1cnc2ccc(N3CCOCC3)cn12", "HCT-15 colon", 1],
  ["CCOc1ccccc1-n1c(CN2CCN(C(=O)COc3ccc(CNCCCCCCN4C5CCCC4CC(OC(=O)Nc4cc(C)ccc4OC)C5)cc3)CC2)nc2ccccc2c1=O (centres undefined)", "HCT-15 colon", 1],
  ["COc1cccc(Nc2nccc(Nc3ccc4[nH]ncc4c3)n2)c1", "HCT-15 colon", 1],
  ["C=CC(=O)Nc1cccc(Oc2nccc(Nc3nnc(C4CC4)s3)n2)c1", "HCT-15 colon", 0]
]}

Short answer needed: outcome of this test for `Cc1nc2ccccc2c(/C=C/c2ccc(Cl)cc2)c1C(=O)/C=C/c1ccc(F)cc1` ?
1

And the next one, CC1=C([Se]CC(OC(=O)[C@@H](CO)NC(=O)OC(C)(C)C)C(=O)NC(C)(C)C)C(=O)c2ccccc2C1=O (some centres undefined) ?
1

Another compound to check: `O=C1Nc2ccccc2/C1=C/c1cn(C(=O)c2c(Cl)cccc2Cl)c2ccccc12`
0

Then this compound: `N#Cc1c(-c2ccccc2)cc(-c2ccc(Nc3nc(Nc4ccc(F)cc4)nc(Nc4ccc(F)cc4)n3)cc2)nc1N`
0

###

system: KM12 colon; assay: NCI-60 one-dose screen, 48 h; details: 10 µM unless noted
Compounds without any hit were thinned out: in the full panel of roughly 83,000, 20% have a hit. Activity calls are given as the source filed them. How the source made its calls: active means growth percent below 10; inactive means the rest.
Response enum: T (active), F (inactive)

Please indicate how the test categorized `COc1ccccc1N1C(=O)/C(=C/C2=Cc3ccccc3OC2)SC1=S` .
F

Item: `Oc1c(CN2CCCC2)cc(COCc2ccc(Br)cc2)c2cccnc12`
F

Next entry: `CC(C)(C)n1cc(-c2ccnc(NCCCNS(=O)(=O)c3ccccc3)c2)c(-c2ccccc2)n1`
F

Try `Cn1cc(-c2csc(-c3cccc(F)c3)n2)c2cccnc21` next.
T

Okay, and `CCOC(=O)c1c2c(n3ccc(NC(=O)OC(C)(C)C)cc13)C(=O)c1ncccc1C2=O` ?
T

Follow-up item: `CCOC(=O)C/C(C)=N\NC(=O)c1ccncc1`
F

###

tested on: OVCAR-8 ovarian; assay: NCI-60 one-dose screen, 48 h; conditions: 10 µM unless noted
Compounds without any hit were thinned out: in the full panel of roughly 83,000, 20% have a hit. The source made the active and inactive calls. How the source made its calls: active means growth percent below 10; inactive means the rest.
Log the outcome using a class from 1.0 for active, 0.0 for inactive

Completed entries (count: 3):
{"columns": ["compound", "label_class"],
 "data": [
  ["Cn1c2c(c3ccc(Cl)c(Cl)c31)C(C#N)C1(CCNCC1)NC2=O (centres undefined)", 0.0],
  ["CSc1n(Cc2ccc3ccccc3c2)c(C)c[n+]1Cc1ccc2ccccc2c1", 1.0],
  ["O=c1ssc(Cl)c1-c1ccccc1", 0.0]
]}

Let us examine a further case.
Which outcome was assigned to `NS(=O)(=O)c1cnccc1Sc1ccncc1S(N)(=O)=O` in this test?
0.0

###

Entries and their measured growth follow.
system: OVCAR-3 ovarian; experiment: NCI-60 one-dose screen, 48 h (100 = growth as untreated, 0 = no growth, -100 = all killed); conditions: 10 µM unless noted
The panel holds about 83,000 compounds, 20% with a hit somewhere; the sample as a whole holds those more often.
The reply should be a number in %, with the unit left off.

Consider the following illustrative entries.
{"columns": ["compound", "growth [%]"],
 "data": [
  ["COC(=O)[C@]12CC[C@@H](C)[C@H](C)[C@@H]1C1=CC[C@@H]3[C@@]4(C)C(C=O)=C[C@@](C)(COC(C)=O)[C@@H]4[C@H](O)C[C@@]3(C)[C@]1(C)CC2", -85.7],
  ["O=C(/C=C/c1c(Cl)nc2sccn12)c1ccc(F)c(F)c1", 81.7],
  ["COc1cc(C(=O)c2cc(C)c3[nH]c4ccc(Cl)cc4c3c2C)cc(OC)c1OC", -35.7],
  ["CN(C)c1ccc(/C=C/C(=O)c2cccc(Nc3nc(Nc4ccccc4)nc(Nc4ccccc4)n3)c2)cc1", 102],
  ["N#C/C(=C/C=C/c1cccc(Cl)c1)S(=O)c1ccccc1 (centres undefined)", -86.1]
]}

Let us examine a further case.
Requested read-out: growth. Entry: `c1coc(-c2c3ccc(=[N+]4CCCCC4)cc-3oc3cc(N4CCCCC4)ccc23)c1`
-99.2

###

tested on: OVCAR-4 ovarian; test: NCI-60 one-dose screen, 48 h (100 = growth as untreated, 0 = no growth, -100 = all killed); conditions: 10 µM unless noted
The panel holds about 83,000 compounds, 20% with a hit somewhere; the sample as a whole holds those more often.
reported_endpoint: growth (%)
The figure you give is taken to be in %; do not add the unit.

Consider the worked cases shown below.
{"columns": ["molecular_string", "reported_endpoint", "experimental_value"],
 "data": [
  ["Cc1nn(-c2ccccc2)c2nc3c(c(-c4ccc(Cl)cc4)c12)CNC1(CCSCC1)N3", "growth", 98.9],
  ["Cc1cccc(Cc2cnc(NC(=O)/C=C/c3ccco3)s2)c1", "growth", 55.6],
  ["Cc1cc(C)c(-c2c(C)cc(C)cc2CBr)c(CBr)c1", "growth", 74.1],
  ["CCN1CCN(c2nc(C)cc(NCc3cc(Nc4ccnc5cc(Cl)ccc45)ccc3F)n2)CC1", "growth", 26.1],
  ["c1cc2ccc3cc2cc1CNCCOCCNCc1ccc2ccc(cc2c1)CNCCOCCNC3", "growth", -40.4],
  ["O=C(c1ccc(Nc2nccc(NCCCCNc3ccnc4cc(Cl)ccc34)n2)cc1)N1CCCCC1", "growth", 49],
  ["COc1ccc(N2CCN(c3nc(-c4cc(OC)c(OC)c(OC)c4)nc4ccccc34)CC2)cc1", "growth", 88],
  ["O=C1/C(=C\\c2cccnc2)SC(=S)N1CCc1ccc(O)cc1", "growth", 64],
  ["COc1cc(/C=N/n2c(CN3CCOCC3)nc3ccccc3c2=O)cc(OC)c1OC", "growth", 104]
]}

Continue with the compound presented below.
Item under review: `Cc1c(C(=O)OC(=NC2CCCCC2)NC2CCCCC2)sc2c1c(=O)nc1c(C#N)n[nH]n12` . Reported growth?
105

From: PubChem BioAssay (NCI)
